# assayed_target: human kisspeptin receptor (Homo sapiens (Human))
# Sequence (Q969F8 whole entry): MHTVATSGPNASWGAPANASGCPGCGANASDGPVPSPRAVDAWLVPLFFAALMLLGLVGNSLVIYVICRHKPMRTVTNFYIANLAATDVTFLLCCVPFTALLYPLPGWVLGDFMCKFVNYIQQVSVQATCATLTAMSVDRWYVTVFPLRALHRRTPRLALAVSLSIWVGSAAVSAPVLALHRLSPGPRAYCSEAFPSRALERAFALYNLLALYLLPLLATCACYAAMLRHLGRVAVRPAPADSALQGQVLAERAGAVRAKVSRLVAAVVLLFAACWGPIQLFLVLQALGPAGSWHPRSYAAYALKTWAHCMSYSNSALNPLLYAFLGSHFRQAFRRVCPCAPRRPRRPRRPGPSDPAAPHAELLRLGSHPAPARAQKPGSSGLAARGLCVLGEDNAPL
# assay_protocol: Human KISS1R binding assay (membrane competition binding)
# condition_label: 90 min at room temperature; competition with 0.2 nM [125I]-metastin (45-54); Flp-In T-Rex 293 kisspeptin membranes; metal complexes nonradioactive Ga, In, Lu; read-out: hKiSSR Binding Ki (90 min)
Square brackets hold non-standard residues; d marks the D form. Peptide text beside a SMILES is read from it. * marks the point of attachment. DOTA = O=C(O)CN1CCN(CC(=O)O)CCN(CC(=O)*)CCN(CC(=O)O)CC1; Gly(N-(3-F-4-Me-benzyl)) = Cc1ccc(CNCC(=O)*)cc1F; Gly(Nα-4-MeO-benzyl) = COc1ccc(CNCC(=O)*)cc1; Cha = N[C@@H](CC1CCCCC1)C(=O)O; 4Amb = NCc1ccc(C(=O)O)cc1; Api = NC1(C(=O)O)CCNCC1; Ahx = NCCCCCC(=O)O; azaGly = NNC(=O)O
endpoint_label: Ki

INSERT INTO measurements (molecule, reported_value) VALUES
  ('COc1ccc(CNCC(=O)N2CCC(NC(=O)[C@H](CC(C)C)NC(=O)NNC(=O)[C@H](Cc3ccccc3)NC(=O)[C@@H](NC(=O)[C@H](CC(N)=O)NC(=O)[C@@H](Cc3c[nH]c4ccccc34)NC(=O)[C@@H](Cc3ccc(O)cc3)NC(=O)CCCCCNC(=O)CN3CCN(CC(=O)O)CCN(CC(=O)O)CCN(CC(=O)O)CC3)[C@@H](C)O)(C(=O)N[C@@H](Cc3ccccc3)C(N)=O)CC2)cc1 [Compound 140] ({DOTA-Ahx}-[dY][dW]NTF[azaGly]L[Api](Gly(Nα-4-MeO-benzyl))F-NH2)', '< 10 nM');

Let us move to another entry and its Ki.
So for Cc1ccc(CNCC(=O)N2CCC(NC(=O)[C@H](CC(C)C)NC(=O)NNC(=O)[C@H](CC3CCCCC3)NC(=O)c3ccc(CNC(=O)CN4CCN(CC(=O)O)CCN(CC(=O)O)CCN(CC(=O)O)CC4)cc3)(C(=O)N[C@@H](Cc3c[nH]c4ccccc34)C(N)=O)CC2)cc1F [Compound 261] ({DOTA-4Amb}-[Cha][azaGly]L[Api](Gly(N-(3-F-4-Me-benzyl)))W-NH2) , the logged Ki turned out to be < 10 nM
